Cited source: patent US20070049564A1

# System: E. coli
# assay: Range of MIC for E. coli strains
# test-conditions: Escherichia coli, read-out: Range of MIC, E. coli (Water)
measured-parameter: MIC

cpd-smiles	measured-parameter	measured-value
Cc1cc(C)cc(C(=O)OCOC(=O)N(CC(=O)Nc2cc(N(C)C)c3c(c2O)C(=O)C2=C(O)[C@]4(O)C(=O)C(C(N)=O)=C(O)[C@@H](N(C)C)[C@@H]4C[C@@H]2C3)C(C)(C)C)c1	MIC	> 64 µg/mL
CN(C)c1cc(NC(=O)CN(C(=O)OCOC(=O)Cc2cc(C(F)(F)F)cc(C(F)(F)F)c2)C(C)(C)C)c(O)c2c1C[C@H]1C[C@H]3[C@H](N(C)C)C(O)=C(C(N)=O)C(=O)[C@@]3(O)C(O)=C1C2=O	MIC	16 to 32 µg/mL
CCCN(CC(=O)Nc1cc(N(C)C)c2c(c1O)C(=O)C1=C(O)[C@]3(O)C(=O)C(C(N)=O)=C(O)[C@@H](N(C)C)[C@@H]3C[C@@H]1C2)C(=O)OCOC(=O)C1CCC1	MIC	2 to 16 µg/mL
CN(C)c1cc(NC(=O)CN(C(=O)OCOC(=O)c2ccccc2-c2ccccc2)C(C)(C)C)c(O)c2c1C[C@H]1C[C@H]3[C@H](N(C)C)C(O)=C(C(N)=O)C(=O)[C@@]3(O)C(O)=C1C2=O	MIC	> 64 µg/mL

###

# System: Staph.
# assay: Range of MIC for Staph. strains, including MRSA
# test-conditions: Staphylococcus aureus, MRSA, read-out: Range of MIC, Staph (Water)

compound	study-system	MIC
CCCN(CC(=O)Nc1cc(N(C)C)c2c(c1O)C(=O)C1=C(O)[C@]3(O)C(=O)C(C(N)=O)=C(O)[C@@H](N(C)C)C3CC1C2)C(=O)OCOC(=O)C1CCCCC1 (stereo partly shown)	Staph.	0.12 to 2 µg/mL
CN(C)c1cc(NC(=O)OCOC(=O)c2cccs2)c(O)c2c1C[C@H]1C[C@H]3[C@H](N(C)C)C(O)=C(C(N)=O)C(=O)[C@@]3(O)C(O)=C1C2=O	Staph.	16 to 32 µg/mL
CN(C)c1cc(NC(=O)CN(C(=O)OCOC(=O)c2cccnc2)C(C)(C)C)c(O)c2c1C[C@H]1C[C@H]3[C@H](N(C)C)C(O)=C(C(N)=O)C(=O)[C@@]3(O)C(O)=C1C2=O	Staph.	4 to 16 µg/mL
CN(C)c1cc(NC(=O)CN(C(=O)OCOC(=O)Cc2ccccc2)C(C)(C)C)c(O)c2c1C[C@H]1C[C@H]3[C@H](N(C)C)C(O)=C(C(N)=O)C(=O)[C@@]3(O)C(O)=C1C2=O	Staph.	0.12 to 1 µg/mL
CN(C)c1cc(NC(=O)OCOC(=O)C(C)(C)C)c(O)c2c1C[C@H]1C[C@H]3[C@H](N(C)C)C(O)=C(C(N)=O)C(=O)[C@@]3(O)C(O)=C1C2=O	Staph.	8 to 32 µg/mL
CCCN(CC(=O)Nc1cc(N(C)C)c2c(c1O)C(=O)C1=C(O)[C@]3(O)C(=O)C(C(N)=O)=C(O)[C@@H](N(C)C)[C@@H]3C[C@@H]1C2)C(=O)OCOC(=O)CC(C)(C)C	Staph.	2 to 4 µg/mL
CN(C)c1cc(NC(=O)CN(C(=O)OCOC(=O)c2ccc(F)cc2)C(C)(C)C)c(O)c2c1C[C@H]1C[C@H]3[C@H](N(C)C)C(O)=C(C(N)=O)C(=O)[C@@]3(O)C(O)=C1C2=O	Staph.	2 to 4 µg/mL

###

# Test system: E. faecalis GC 2267
# assay: MIC, broth microdilution
# test-conditions: Enterococcus faecalis, GC2267, read-out: MINIMAL INHIBITORY CONCENTRATION MIC, pre-incubated in Water
Each item that follows carries a reported MIC.
measured-parameter: MIC (µg/mL)

molecule	units-label	measured-value
CCC(C)(C)C(=O)OCOC(=O)N(CC(=O)Nc1cc(N(C)C)c2c(c1O)C(=O)C1=C(O)[C@]3(O)C(=O)C(C(N)=O)=C(O)[C@@H](N(C)C)[C@@H]3C[C@@H]1C2)C(C)(C)C [Example 44]	µg/mL	4
CCCN(CC(=O)Nc1cc(N(C)C)c2c(c1O)C(=O)C1=C(O)[C@]3(O)C(=O)C(C(N)=O)=C(O)[C@@H](N(C)C)[C@@H]3C[C@@H]1C2)C(=O)OCOC(=O)c1ccsc1 [Example 27]	µg/mL	2
Cc1ccc(C(=O)OCOC(=O)N(CC(=O)Nc2cc(N(C)C)c3c(c2O)C(=O)C2=C(O)[C@]4(O)C(=O)C(C(N)=O)=C(O)[C@@H](N(C)C)[C@@H]4C[C@@H]2C3)C(C)(C)C)cc1 [Example 47]	µg/mL	4
CCCCN(CC(=O)Nc1cc(N(C)C)c2c(c1O)C(=O)C1=C(O)[C@]3(O)C(=O)C(C(N)=O)=C(O)[C@@H](N(C)C)[C@@H]3C[C@@H]1C2)C(=O)OCOC(=O)c1ccc(-c2ccccc2)cc1 [Example 21]	µg/mL	64
CCCN(CC(=O)Nc1cc(N(C)C)c2c(c1O)C(=O)C1=C(O)[C@]3(O)C(=O)C(C(N)=O)=C(O)[C@@H](N(C)C)[C@@H]3C[C@@H]1C2)C(=O)OCOC(=O)c1ccc(-c2ccccc2)cc1 [Example 24]	µg/mL	64
CCCCN(CC(=O)Nc1cc(N(C)C)c2c(c1O)C(=O)C1=C(O)[C@]3(O)C(=O)C(C(N)=O)=C(O)[C@@H](N(C)C)[C@@H]3C[C@@H]1C2)C(=O)OCOC(=O)c1cc(C)cc(C)c1 [Example 22]	µg/mL	64
CN(C)c1cc(NC(=O)CN(C(=O)OCOC(=O)C2CCCC2)C(C)(C)C)c(O)c2c1C[C@H]1C[C@H]3[C@H](N(C)C)C(O)=C(C(N)=O)C(=O)[C@@]3(O)C(O)=C1C2=O [Example 46]	µg/mL	2
CN(C)c1cc(NC(=O)CN(C(=O)OCOC(=O)CC(C)(C)C)C(C)(C)C)c(O)c2c1C[C@H]1C[C@H]3[C@H](N(C)C)C(O)=C(C(N)=O)C(=O)[C@@]3(O)C(O)=C1C2=O [Example 42]	µg/mL	4

###

Each item that follows carries a reported MIC.
# System: E. coli GC 2271
# assay: MIC, broth microdilution
# test-conditions: Escherichia coli, GC2271, E. coli GC 2271; Mouse Serum pre-incubation
measured-parameter: MIC (µg/mL)

compound	measured-parameter	units-label	relation-operator	measured-value
CCCCN(CC(=O)Nc1cc(N(C)C)c2c(c1O)C(=O)C1=C(O)[C@]3(O)C(=O)C(C(N)=O)=C(O)[C@@H](N(C)C)[C@@H]3C[C@@H]1C2)C(=O)OCOC(=O)Cc1ccccc1 [Example 12]	MIC	µg/mL	=	0.5
CCCCN(CC(=O)Nc1cc(N(C)C)c2c(c1O)C(=O)C1=C(O)[C@]3(O)C(=O)C(C(N)=O)=C(O)[C@@H](N(C)C)C3CC1C2)C(=O)OCOC(=O)C(C)C (stereo partly drawn) [Example 1]	MIC	µg/mL	=	0.5
CCCN(CC(=O)Nc1cc(N(C)C)c2c(c1O)C(=O)C1=C(O)[C@]3(O)C(=O)C(C(N)=O)=C(O)[C@@H](N(C)C)[C@@H]3C[C@@H]1C2)C(=O)OCOC(=O)C(C)(C)C [Example 9]	MIC	µg/mL	=	0.5
CCCN(CC(=O)Nc1cc(N(C)C)c2c(c1O)C(=O)C1=C(O)[C@]3(O)C(=O)C(C(N)=O)=C(O)[C@@H](N(C)C)[C@@H]3C[C@@H]1C2)C(=O)OCOC(=O)C(C)C [Example 10]	MIC	µg/mL	=	0.25
CCCN(CC(=O)Nc1cc(N(C)C)c2c(c1O)C(=O)C1=C(O)[C@]3(O)C(=O)C(C(N)=O)=C(O)[C@@H](N(C)C)[C@@H]3C[C@@H]1C2)C(=O)OCc1ccccc1 [Example 14]	MIC	µg/mL	>	64
CCCN(CC(=O)Nc1cc(N(C)C)c2c(c1O)C(=O)C1=C(O)[C@]3(O)C(=O)C(C(N)=O)=C(O)[C@@H](N(C)C)[C@@H]3C[C@@H]1C2)C(=O)OCOC(=O)c1ccc(OC)cc1 [Example 6]	MIC	µg/mL	=	1

###

# Test system: S. agalactiae GC 4564
# assay: MIC, broth microdilution
# test-conditions: Streptococcus agalactiae, GC4564, read-out: MINIMAL INHIBITORY CONCENTRATION MIC, pre-incubated in Mouse Serum
Each item that follows carries a reported MIC.

cpd-smiles	units-label	relation-operator	MIC
Cc1ccc(C(=O)OCOC(=O)N(CC(=O)Nc2cc(N(C)C)c3c(c2O)C(=O)C2=C(O)[C@]4(O)C(=O)C(C(N)=O)=C(O)[C@@H](N(C)C)[C@@H]4C[C@@H]2C3)C(C)(C)C)cc1	µg/mL	=	0.5
CCCCN(CC(=O)Nc1cc(N(C)C)c2c(c1O)C(=O)C1=C(O)[C@]3(O)C(=O)C(C(N)=O)=C(O)[C@@H](N(C)C)[C@@H]3C[C@@H]1C2)C(=O)OCOC(=O)c1ccc(-c2ccccc2)cc1	µg/mL	=	0.5
CCC(C)(C)C(=O)OCOC(=O)N(CC(=O)Nc1cc(N(C)C)c2c(c1O)C(=O)C1=C(O)[C@]3(O)C(=O)C(C(N)=O)=C(O)[C@@H](N(C)C)[C@@H]3C[C@@H]1C2)C(C)(C)C	µg/mL	=	1
CCCN(CC(=O)Nc1cc(N(C)C)c2c(c1O)C(=O)C1=C(O)[C@]3(O)C(=O)C(C(N)=O)=C(O)[C@@H](N(C)C)[C@@H]3C[C@@H]1C2)C(=O)OCOC(=O)c1ccsc1	µg/mL	=	0.12
CN(C)c1cc(NC(=O)CN(C(=O)OCOC(=O)c2ccc(C(C)(C)C)cc2)C(C)(C)C)c(O)c2c1C[C@H]1C[C@H]3[C@H](N(C)C)C(O)=C(C(N)=O)C(=O)[C@@]3(O)C(O)=C1C2=O	µg/mL	<	0.06
